assay: Binding affinity was measured as selectivity for sigma-1 site over muscarinic (M1) receptor in rat
observed property: Ki (µM)
Lab book: enter the figure in µM, no units written.

Ki reported for this molecule COc1ccc2c(c1)[C@]13CCCC[C@@H]1[C@H](C2)N(C)CC3 : 5.07

Ref: BindingDB's records for doi:10.1021/jm00039a008
